assay_conditions: octanol/water
delta logD listing for selected compounds.
Please respond with just the number, no unit label.

Record excerpt, results attached:
Cc1onc(-c2c(Cl)cccc2Cl)c1C(=O)N[C@@H]1C(=O)N2[C@@H]1SC(C)(C)[C@@H]2C(=O)O : 0.9
CC(C)(C)NCC(O)COc1cccc2c1CCC(=O)N2 (stereo not given) : -0.89
O=C(NCC1CCCCN1)c1cc(OCC(F)(F)F)ccc1OCC(F)(F)F (stereo not given) [FLECAINIDE] : -0.9

**Q:** # get_value(readout='delta logD', item= CN(CCCN1c2ccccc2CCc2ccccc21)CC(=O)c1ccc(Cl)cc1 )
**A:** -0.32

---

assay_details: physchem
assay_conditions: octanol/water, pH 6.5
logD listing for selected compounds.
Please respond with just the number, no unit label.

Record excerpt, results attached:
COC(=O)Nc1nc2ccc(C(=O)c3ccccc3)cc2[nH]1 : 2.83
Nc1c(CC(=O)O)cccc1C(=O)c1ccc(Br)cc1 : 1.39
COc1cc(N)c(Cl)cc1C(=O)NC1CCN(CCCOc2ccc(F)cc2)CC1OC (stereo not given) [CISAPRIDE] : 1.79

**Q:** # get_value(readout='logD', item= Fc1ccc([C@@H]2CCNC[C@H]2COc2ccc3c(c2)OCO3)cc1 )
**A:** -1.96

**Q:** # get_value(readout='logD', item= CN(C)CCC(c1ccc(Cl)cc1)c1ccccn1 (stereo not given) )
**A:** 0.69

**Q:** # get_value(readout='logD', item= NC(N)=Nc1nc(CSCCC(N)=NS(N)(=O)=O)cs1 )
**A:** -1.27

**Q:** # get_value(readout='logD', item= CC(CCc1ccccc1)NCC(O)c1ccc(O)c(C(N)=O)c1 (stereo not given) )
**A:** 0.35

**Q:** # get_value(readout='logD', item= CN(C)CCCN1c2ccccc2CCc2ccc(Cl)cc21 )
**A:** 2.49

**Q:** # get_value(readout='logD', item= COc1ccc2cc(CCC(C)=O)ccc2c1 )
**A:** 2.83

**Q:** # get_value(readout='logD', item= Cc1[nH]c(=O)c(C#N)cc1-c1ccncc1 )
**A:** 0.68

---

assay_details: physchem
assay_conditions: octanol/water, pH 6.5, logD
Category key, based on recorded logD: low value = under -2, medium value = from -2 up to 2, high value = 2 and over

NCCc1ccc(O)c(O)c1 : low value

Okay, now this molecule:
**Q:** Class label required: O=C1CN(/N=C/c2ccc([N+](=O)[O-])o2)C(=O)N1
**A:** medium value

---

assay_details: clinical
assay_conditions: human, in vivo, po, F
endpoint_name: bioavailability

Record excerpt, results attached:
NNc1nncc2ccccc12 [HYDRALAZINE] : ≤ 20%
Nc1nc(N)c2nc(-c3ccccc3)c(N)nc2n1 : 79%
CO/C(O)=C1\C(C)=NC(C)=C(C(=O)OCC(C)C)C1c1ccccc1[N+](=O)[O-] (stereo not given) : < 20%

**Q:** # get_value(readout='bioavailability', item= Sc1ncnc2nc[nH]c12 [MERCAPTOPURINE ANHYDROUS] )
**A:** ≤ 20%

**Q:** # get_value(readout='bioavailability', item= CC(C)(C)NCC(O)c1cc(O)cc(O)c1 (stereo not given) [TERBUTALINE] )
**A:** < 20%

**Q:** # get_value(readout='bioavailability', item= CNCCCC1c2ccccc2C=Cc2ccccc21 [PROTRIPTYLINE] )
**A:** > 80%

**Q:** # get_value(readout='bioavailability', item= CNC[C@H](O)c1ccc(O)c(O)c1 [EPINEPHRINE] )
**A:** < 20%

**Q:** # get_value(readout='bioavailability', item= COCCOC(=O)C1=C(C)NC(C)=C(C(=O)OC(C)C)C1c1cccc([N+](=O)[O-])c1 (stereo not given) [NIMODIPINE] )
**A:** < 20%

**Q:** # get_value(readout='bioavailability', item= COC(=O)C1=C(C#N)NC(C)=C(C(=O)OC(C)C)C1c1cccc([N+](=O)[O-])c1 (stereo not given) [NILVADIPINE] )
**A:** < 20%

**Q:** # get_value(readout='bioavailability', item= CN1CCN(CCCN2c3ccccc3Sc3ccc(Cl)cc32)CC1 [PROCHLORPERAZINE] )
**A:** < 20%

---

assay_details: physchem
assay_conditions: octanol/water, pH 6.5, logD
Response key: 1.0 means logD >= -1; 0.0 means logD < -1.

CN1CCN2c3ccccc3Cc3ccccc3C2C1 (stereo not given) : 1.0

**Q:** Given the entry O=c1n(CCCN2CCN(c3cccc(Cl)c3)CC2)nc2ccccn12 , answer whether its logD meets or surpasses -1.
**A:** 1.0

**Q:** Given the entry CNS(=O)(=O)Cc1ccc2[nH]cc(CCN(C)C)c2c1 , answer whether its logD meets or surpasses -1.
**A:** 0.0

**Q:** Given the entry Clc1cccc(Cl)c1N=C1NCCN1 , answer whether its logD meets or surpasses -1.
**A:** 1.0

**Q:** Given the entry CN(C)CC(Oc1ccccc1)Oc1ccccc1 , answer whether its logD meets or surpasses -1.
**A:** 1.0

**Q:** Given the entry CNC[C@H](O)c1ccc(O)c(O)c1 [EPINEPHRINE] , answer whether its logD meets or surpasses -1.
**A:** 0.0

**Q:** Given the entry CC(C)(C)NC(=O)C1CC[C@H]2[C@]3(C)CC[C@H]4NC(=O)C=C[C@]4(C)[C@H]3CC[C@]12C (stereo not given in full) , answer whether its logD meets or surpasses -1.
**A:** 1.0

---

delta logD listing for selected compounds.
assay_conditions: octanol/water
Please respond with just the number, no unit label.

CN1CCN(C2=Nc3cc(Cl)ccc3Nc3ccccc32)CC1 : -0.81

Alright, here's another compound for you.
**Q:** # get_value(readout='delta logD', item= CC(C)NCC(O)c1cc(O)cc(O)c1 (stereo not given) )
**A:** -0.9

---

assay_conditions: octanol/water
delta logD listing for selected molecules.
Please respond with just the number, no unit label.

Record excerpt, results attached:
CC(C)=CCN1CC[C@@]2(C)c3cc(O)ccc3C[C@@H]1[C@@H]2C : -0.88
CNC(=C[N+](=O)[O-])NCCSCc1csc(CN(C)C)n1 : -0.38
NNC(=O)c1ccncc1 : 0

**Q:** # get_value(readout='delta logD', item= C[C@]12CC[C@H]3[C@@H](CCC4=CC(=O)CC[C@@]43C)[C@@H]1CC[C@@H]2O )
**A:** 0

**Q:** # get_value(readout='delta logD', item= CNC(=C[N+](=O)[O-])NCCSCc1ccc(CN(C)C)o1 )
**A:** -0.84

---

delta logD listing for selected compounds.
assay_conditions: octanol/water
Please respond with just the number, no unit label.

Record excerpt, results attached:
CCOc1ccc2ccccc2c1C(=O)N[C@@H]1C(=O)N2[C@@H]1SC(C)(C)[C@@H]2C(=O)O : 0.9
OCCN1CCN(CCCN2c3ccccc3Sc3ccc(Cl)cc32)CC1 : -0.77

**Q:** # get_value(readout='delta logD', item= CCOC(=O)C1(c2ccccc2)CCN(C)CC1 )
**A:** -0.88

**Q:** # get_value(readout='delta logD', item= COc1ccc(CCNCC(O)COc2cccc(C)c2)cc1OC (centres undefined) )
**A:** -0.87

**Q:** # get_value(readout='delta logD', item= COc1cc(N)c(Cl)cc1C(=O)NC1CCN(CCCOc2ccc(F)cc2)CC1OC (centres undefined) [CISAPRIDE] )
**A:** -0.75

**Q:** # get_value(readout='delta logD', item= CC[C@H]1[C@@H]2C[C@H]3[C@@H]4N(C)c5ccccc5[C@]45C[C@@H]([C@@H]2[C@H]5O)N3[C@@H]1O )
**A:** -0.25

**Q:** # get_value(readout='delta logD', item= CN1C(=O)NC(=O)C(C)(C2=CCCCC2)C1=O (centres undefined) [HEXOBARBITAL] )
**A:** 0.04

**Q:** # get_value(readout='delta logD', item= NNc1nncc2ccccc12 [HYDRALAZINE] )
**A:** -0.61

**Q:** # get_value(readout='delta logD', item= C=CCc1ccccc1OCC(O)CNC(C)C (centres undefined) )
**A:** -0.89

---

assay_conditions: octanol/water
delta logD listing for selected compounds.
Please respond with just the number, no unit label.

Record excerpt, results attached:
O=C(NCCNCC(O)COc1ccc(O)cc1)N1CCOCC1 (stereo not given) : -0.78
COc1cccc(C2(O)CCCCC2CN(C)C)c1 (stereo not given) : -0.9
NC(=O)N1c2ccccc2C=Cc2ccccc21 [CARBAMAZEPINE] : 0
CCCNC(=O)NS(=O)(=O)c1ccc(Cl)cc1 [CHLORPROPAMIDE] : 0.89
CN1CCN(CC(=O)N2c3ccccc3C(=O)Nc3cccnc32)CC1 [PIRENZEPINE] : -0.83

**Q:** # get_value(readout='delta logD', item= O=C(O)CCc1nc(-c2ccccc2)c(-c2ccccc2)o1 )
**A:** 0.84

**Q:** # get_value(readout='delta logD', item= CC(C)n1c(/C=C/C(O)CC(O)CC(=O)O)c(-c2ccc(F)cc2)c2ccccc21 (stereo not given) )
**A:** 0.9

**Q:** # get_value(readout='delta logD', item= O=C(NCCN1CCOCC1)c1ccc(Cl)cc1 [MOCLOBEMIDE] )
**A:** -0.15

**Q:** # get_value(readout='delta logD', item= OCCN1CCN(CC/C=C2/c3ccccc3Sc3ccc(Cl)cc32)CC1 )
**A:** -0.83

**Q:** # get_value(readout='delta logD', item= O=C(c1ccccc1)c1ccc2n1CCC2C(=O)O (stereo not given) )
**A:** 0.9
